Every entry's value here was drawn from PubChem BioAssay AID1619.

Target: Leucine aminopeptidase (Plasmodium falciparum (isolate 3D7)) (UniProt Q8IL11)
Sequence (Q8IL11 whole entry, looked up): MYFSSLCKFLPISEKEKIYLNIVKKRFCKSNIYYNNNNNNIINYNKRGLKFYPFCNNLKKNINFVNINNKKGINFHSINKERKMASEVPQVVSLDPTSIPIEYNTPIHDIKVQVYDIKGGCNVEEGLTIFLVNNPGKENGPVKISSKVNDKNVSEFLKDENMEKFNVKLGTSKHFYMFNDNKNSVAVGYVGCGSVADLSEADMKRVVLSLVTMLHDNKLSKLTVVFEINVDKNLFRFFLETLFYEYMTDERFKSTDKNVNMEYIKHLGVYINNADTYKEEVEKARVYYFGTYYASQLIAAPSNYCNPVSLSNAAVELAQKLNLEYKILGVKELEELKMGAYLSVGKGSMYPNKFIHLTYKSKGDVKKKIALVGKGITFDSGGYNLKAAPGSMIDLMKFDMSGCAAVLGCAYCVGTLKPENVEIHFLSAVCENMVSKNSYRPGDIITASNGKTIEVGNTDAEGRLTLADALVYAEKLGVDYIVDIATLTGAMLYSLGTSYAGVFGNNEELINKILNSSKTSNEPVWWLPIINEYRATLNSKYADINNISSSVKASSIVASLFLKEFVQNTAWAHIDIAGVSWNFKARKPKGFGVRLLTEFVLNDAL
Assay: P. falciparum M17LAP inhibitors, primary screen, biochemical, fluorogenic H-Leu-NHMec substrate, 1536-well (AID 1619);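 also: plate controls were full reaction with DMSO carrier for no effect and no enzyme background for full effect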
Conditions: recombinant M17LAP, H-Leu-NHMec fluorogenic kinetic assay; at 30 µM; active compounds read high
Hit rate of the full screen: of about 220,000 compounds, about 830 (0.38%) were called active. Only a sample is shown. Measured potencies and affinities stand elsewhere.
MEASURE: inhibition (%)

CCCCS(=O)(=O)N1CN(S(=O)(=O)CCCC)C2NC(=O)NC21 (stereo not drawn)	0.79
CCOc1ncccc1C(=O)OCC(=O)c1cc(C)n(Cc2ccco2)c1C	6.52
Cc1cc(C(=O)OCC(N)=O)c(C)n1-c1ccccc1	3.65
CCOC(=O)N1CCC(N(C(=O)Nc2cccc(OC)c2)C(C)CC)CC1 (stereo not drawn)	7.02
COc1ccc(Cn2c(CCC(=O)Nc3ccc(C)cc3)nc3cccnc32)cc1	-4.5
COc1cc(NS(=O)(=O)c2ccc(NC(C)=O)cc2)nc(OC)n1	-0.66
Cc1ccc2c(=O)[nH]c(Cc3ccccc3C(=O)O)nc2c1	2.27
Cc1ccc(CSc2nnc(SCC(=O)N/N=C/C=C/c3ccccc3[N+](=O)[O-])s2)cc1	5.78
Cc1ccc(S(=O)(=O)N(C)CCCC(=O)NC(C)(C)C)cc1	-1.26
CCC1CSC(Nc2ccc(C(=O)/C=C/c3ccc(Br)cc3)cc2)=N1 (stereo not drawn)	15.6
O=C(CN1C(=O)C2C3C=CC(C3)C2C1=O)NCc1ccccc1 (stereo not drawn)	18.9
CC(C)OC(=O)c1cc(NC(=O)C2C3CCC(O3)C2C(=O)O)cc(C(=O)OC(C)C)c1 (stereo not drawn)	2.91
COc1ccc(-c2[nH]nc3c2C(c2ccoc2)C(C#N)=C(N)O3)cc1 (stereo not drawn)	27.9
CCOC(=O)Cc1csc(NC(=O)NC2(C(F)(F)F)Oc3ccc(Cl)cc3O2)n1 (stereo not drawn)	52.5
Cc1ccc(N(Cc2cc3ccccc3[nH]c2=O)S(=O)(=O)c2ccccc2)cc1	9.01
O=C1c2ccccc2-c2cccc(C(=O)N3CCN(C(=O)c4ccccc4)CC3)c21	2.37
COc1cccc(-c2[nH]nc3c2C(c2ccsc2)C(C#N)=C(N)O3)c1 (stereo not drawn)	35.3
O=C(CCc1nnc(CCCCc2ccccc2)o1)NCc1cccc(F)c1	-1.09
O=C1CS/C(=C/C(=O)c2cccc(Cl)c2)N1	16
CCOC(=O)Cc1csc(NC(=O)NC2(C(F)(F)F)Oc3ccccc3O2)n1	6.11
COc1ccc(N2CCN(CCCNC(=O)C3(S(=O)(=O)c4ccc(Cl)cc4)CC3)CC2)cc1	16
CC(=O)c1c(C)[n+]([O-])c2ccc3c(non3O)c12	10.2
CCC(=O)Nc1ccc(C(=O)NNC(=O)C(c2ccccc2)c2ccccc2)cc1	5.41
O=C1CCCC(O)=C1N=Nc1cccc(C(=O)O)c1	46.3
Cc1[nH]nc2c1C(c1ccoc1)C(C#N)=C(N)O2 (stereo not drawn)	21.9
CC1=NN(Cc2ccccc2)C(=O)/C1=C\c1ccc(N(C)C)cc1	3.83
Cn1c(=O)oc2cc(S(=O)(=O)N3CCC(C(=O)NCC4COc5ccccc5O4)CC3)ccc21 (stereo not drawn)	3.08
CC(C)OC(=O)CSc1ncnc2c1cnn2-c1ccccc1	-11.6
Cn1c(C(=O)O)c(CC(=O)Nc2ccc3c(c2)OCCO3)c2ccccc21	-6.24
CCOC(=O)c1nn(-c2ccc(Br)cc2)cc1C(=O)c1cccc2ccccc12	2.03
COc1cc(-c2[nH]nc3c2C(c2ccoc2)C(C#N)=C(N)O3)cc(OC)c1OC (stereo not drawn)	24
Cc1sc(NC(=O)c2cc3ccccc3oc2=O)c(C(=O)OC(C)C)c1-c1ccccc1	5.06
CSc1nc2nc3c(cc2c(=O)n1-c1ccc(C)cc1)COC(C)(C)C3	3.67
Cc1ccc(-c2noc(CNCCCN(C)C)n2)cc1	2.07
O=Cc1cc(N=Nc2ccccc2Cl)ccc1O	40.2
COc1ccc(C2CC(=O)C=C(NCc3ccc4c(c3)OCO4)C2)cc1 (stereo not drawn)	8.48
Cc1ccc(S(=O)(=O)/C=C2\NC(=O)CS2)cc1	34.6
Cc1ccc(Cn2ccc(NC(=O)c3cc4nc5c(c(C(F)(F)F)n4n3)CCc3ccccc3-5)n2)cc1	13.9
CCCCC(=O)NC(c1ccc(OC)c(OC)c1)c1c(O)ccc2ccccc12 (stereo not drawn)	5.73
Cc1cc(C(=O)COC(=O)c2cccnc2Cl)c(C)n1-c1c(C)n(C)n(-c2ccccc2)c1=O	10.5
COc1ccc(-c2nc(=S)[nH][nH]2)cc1OC	-3.54
O=C(CSC1=NCCS1)Nc1ccc(S(=O)(=O)NC2CCCCC2)cc1	8.51
CN(C)S(=O)(=O)c1ccc(C(=O)NC(=O)CSc2ccccc2)cc1	6.97

---

Molecular target: Leucine aminopeptidase (Plasmodium falciparum (isolate 3D7))
Assay: P. falciparum M17LAP inhibitors, primary screen, biochemical, fluorogenic H-Leu-NHMec substrate, 1536-well (AID 1619);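 also: plate controls were full reaction with DMSO carrier for no effect and no enzyme background for full effect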
Conditions: recombinant M17LAP, H-Leu-NHMec fluorogenic kinetic assay; at 30 µM; active compounds read high
About 830 (0.38%) of roughly 220,000 compounds were called active. These entries were drawn from the full list. Entries with a potency or affinity are not part of this list.
Reported inhibition values are given for each entry in this list.
MEASURE: inhibition (%)

CCOC(=O)C[N+](C)(C)CCOC1CC2CCC1(C)C2(C)C (centres undefined)	3.08
Cc1ccc(CSCCNC(=O)CN2C(=O)c3ccccc3S2(=O)=O)cc1	46.9
CCOc1cc(/C=C2\C(=O)N(CCc3ccc(OC)c(OC)c3)C(C)=C2C(=O)OC)ccc1O	7.43
Cc1cc(C)cc(N2C(=O)CC(N(C(=O)c3ccco3)c3cc(C)cc(C)c3)C2=O)c1 (centres undefined)	3.47
CCOC(=O)C1CCN(S(=O)(=O)c2cnc[nH]2)CC1	3.88
Cc1ccccc1NC(=O)Cn1nnc(-c2ccc(N3CCOCC3)cc2)n1	2.77
Cc1ccc(S(=O)(=O)NNC(=O)CC#N)cc1	5.13
CC1CN(c2nc(-c3ccccc3)nc3ccccc23)CC(C)O1 (centres undefined)	4.44
CC(C)(C)SCCNC(=O)CN1C(=O)c2ccccc2S1(=O)=O	32.2
COC(=O)c1cc(Cl)c(NC(=O)c2cc3ccccc3o2)cc1OC	-2.34
Cc1cc(C)cc(-n2c(SCC(=O)NCc3ccc4c(c3)OCO4)nc3ccccc3c2=O)c1	19.8
Cc1ccccc1/C=N/NC(=O)Cn1nnc(N)n1	-9.27
CCOc1ccc(-n2c(COc3ccccc3)nnc2SCC(N)=O)cc1	-3.38
O=C(c1ccco1)c1cn(CC(=O)N2CCCCC2)c2ccccc12	33.5
CCCCN(CC)CCCNC(=O)c1cc2c(=O)n(C)c3ccccc3c2n1C	-2.09
O=C(CCSc1ccccc1)NCCSCc1ccco1	22.2
CN(C)c1ccc(NC(=S)N2CCN(c3ncc(C(F)(F)F)cc3Cl)CC2)cc1	-0.82
COc1ccc(NC(=O)c2ccc(-n3c(C)ccc3C)cc2)c(OC)c1	4.59
O=C(NC(Cc1ccccc1)C(=O)O)/C(=C\c1ccccc1F)NC(=O)c1ccccc1 (centres undefined)	32.3
Cc1nnc(SCc2cc(=O)[nH]c(=S)[nH]2)s1	27.4
Cc1ccc(SCCNC(=O)CN2C(=O)c3ccccc3S2(=O)=O)cc1	54.1
CCN(CC)C(=O)CSc1nnnn1-c1ccc(F)c(Cl)c1	-1.03
O=C(CCCOc1ccccc1)Nc1ccccc1C(F)(F)F	-17.7
O=C(c1ccccc1Cl)N1CCn2c1nc1ccccc12	24.5
NC(=O)C1CCN(C(=O)c2ccc(CS(=O)(=O)c3c(Cl)cccc3Cl)o2)CC1	1.58
COc1cccc(CN2CCN(C3CCN(c4ccccc4F)CC3)CC2CCO)c1 (centres undefined)	3.43
Cc1cccc(NC(=O)C2CCN(c3nc(C)cc(C)n3)CC2)c1	35.1
Cc1ccc(-c2noc(CCC(=O)NC3CCCc4ccccc43)n2)cc1 (centres undefined)	-3.35
CCN1CCN(C(=O)CN(C)S(=O)(=O)c2ccc(Cl)cc2)CC1	-6.75
CCS(=O)(=O)C1=NN2C(=N)/C(=C\c3ccc(SCc4ccco4)o3)C(=O)N=C2S1	33.6
Cn1ncc(Cl)c1C(=O)N/N=C/c1cc2c(cc1[N+](=O)[O-])OCO2	10.6
FC(F)(F)c1cnc(-c2cnc(-c3cccnc3)nc2)c(Cl)c1	1.19
O=C(CN1C(=O)c2ccccc2S1(=O)=O)Nc1ccccc1C(=O)NCc1ccco1	23.5
CC1CCC2(CC1)NC(=O)N(CC(=O)N1CCN(S(=O)(=O)c3ccccc3)CC1)C2=O (centres undefined)	5.42
O=C(NCc1ccco1)C(=O)c1cn(CC(=O)N2CCCCC2)c2ccccc12	8.43
Cc1ccc(NC(=O)C(=O)NCC2CCCO2)cc1C (centres undefined)	-1.64
Cc1ccc(COc2ccsc2C(=O)O)cc1	-3.31
O=C(NNC(=S)Nc1ccc(Br)cc1Cl)c1ccncc1	21.5
Cc1cc(C)cc(NC(=O)C2CCCN(c3nc(C)cc(C)n3)C2)c1 (centres undefined)	-13.6
